Recorded values, source PubChem BioAssay AID1159580.

Test: chemical genetic growth profiling, strain panel (AID 1159580);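 also: tested at 20 µM; growth read once vehicle control cultures reached saturation at 30 °C; 1 = growth at the plate median or of vehicle wells; lower values mean less growth of the strain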
Details: S. cerevisiae deletion strains, growth OD, locus YMR205C, strain PFK2, hits give low values
Screen size: about 5,500 compounds; about 2,000 (36%) were called active. Not shown: some 18% with an inconclusive outcome. This is one part of the list.
The compounds listed here are annotated with their normalized growth.

SMILES STRUCTURE: COc1ccccc1N1CCN(CCCNc2cc(=O)n(C)c(=O)n2C)CC1
normalized growth: 1.01
//
SMILES STRUCTURE: CN(C)CC[C@H](c1ccc(Cl)cc1)c1ccccn1
normalized growth: 1.02
//
SMILES STRUCTURE: Cc1ccc(-c2nc3ccc(C)cn3c2CC(=O)N(C)C)cc1
normalized growth: 1
